Exercise: state measured Kd for each of the binders provided.
test target: T1, his-tagged human TIGIT (Acro Biosystems #TIT-H52H3) (human, UniProt Q495A1 22-141)
T1 construct: Bought protein; also called His-tagged-TIGIT (human); not shown: his tag
T1 sequence (looked up): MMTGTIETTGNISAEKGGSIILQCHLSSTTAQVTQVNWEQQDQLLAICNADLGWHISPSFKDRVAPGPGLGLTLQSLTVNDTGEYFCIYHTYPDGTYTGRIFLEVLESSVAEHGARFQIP
test: SPR (Carterra LSA), scFv-Fc captured, His-TIGIT analyte
Answers without a unit are incomplete; give the number and then its unit.

Record excerpt, results attached:
# binder, Kd
records = [
    ("43645p1.H10 (scFv, V domains shown) VH: EVQLLESGGGLVQAGGSLRLSCAASGFTFDDYVMTWVRQAPGKGLEWVSLINWSGDRTYYADSVKGRFTISRDNSKNTLYLQMNSLRAEDTAVYYCVKHNLNYYYGMDVWGQGTTVTVSS VL: QSVLTQPPSVSGTPGQRVTISCSGTISNVGNKYVSWYQQVPGTAPKLLIDYNQRPSGVPDRFSGSQSGTSASLTISGLQSEDEADYYCATWDDSLKGWVFGGGTKLTVL", "0.128 nM"),
    ("43586p1.1.A7 (scFv, V domains shown) VH: EVQLLESGGGLVQPGGSLRLSCAASGFTFTSYAMSWVRQAPGKGLEWVAGISYDGSIQYYADSVKGRLTISRDNSKNTLNLQMNSLRAGDTAVYYCAKHLTGGTTDYYYYGMDVWGQGTTVTVSS VL: QSVMTQPPSASGTPGQRVTISCSGSSSNIGTNRYVHWYKQVPGTAPKLLIYGNHQRPSGVPDRFSGSKSGTSASLAISGLQSEDEADYYCAAWDGSLSGWVFGGGTKLTVL", "0.721 nM"),
]

Now take the following binder into account.
Could you share which Kd value was measured for 43586p1.2.C9 (scFv, V domains shown) VH: EVQLLESGGGLVQPGGSLRLSCAASGFTFDDYVMSWVRQAPGKGLEWVSLINWNGDKTYYADSVKGRFTISRDNSKNTLYLQMNSLRAEDTAIYYCAKHWIVFQYGMDVWGQGTTVTVSS VL: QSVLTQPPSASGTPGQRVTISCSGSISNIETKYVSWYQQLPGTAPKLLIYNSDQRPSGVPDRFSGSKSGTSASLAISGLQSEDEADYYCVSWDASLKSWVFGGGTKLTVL ?
0.202 nM
